Data credit: ChEMBL document CHEMBL5038640

# Test system: Staphylococcus aureus
# protocol_notes: Antibacterial activity against Staphylococcus aureus ATCC 29213 assessed as decrease in bacterial growth incubated for 18 hrs by broth microdilution method
# Type: functional

compound: COc1ccc2cc3[n+](cc2c1OCC(O)Cn1cnc([N+](=O)[O-])c1)CCc1cc2c(cc1-3)OCO2.[Br-] (configuration not stated)
MIC / µM: 56
//
compound: COc1ccc2cc3[n+](cc2c1OCC(O)CSc1nc[nH]n1)CCc1cc2c(cc1-3)OCO2.[Br-] (configuration not stated)
MIC / µM: 114
//
compound: COc1ccc2cc3[n+](cc2c1OCC(O)Cn1ccnc1-c1ccccc1)CCc1cc2c(cc1-3)OCO2.[Br-] (configuration not stated)
MIC / µM: 53
//
compound: COc1ccc2cc3[n+](cc2c1OCC(O)CSc1nccn1C)CCc1cc2c(cc1-3)OCO2.[Br-] (configuration not stated)
MIC / µM: 112
//
compound: COc1ccc2cc3[n+](cc2c1OCC(O)CN1CCOCC1)CCc1cc2c(cc1-3)OCO2.[Br-] (configuration not stated)
MIC / µM: 235
//
compound: COc1ccc2cc3[n+](cc2c1OCC(O)CSc1nnc(C)s1)CCc1cc2c(cc1-3)OCO2.[Br-] (configuration not stated)
MIC / µM: 108
//
compound: COc1ccc2cc3[n+](cc2c1OCC(O)CSc1nnnn1C)CCc1cc2c(cc1-3)OCO2.[Br-] (configuration not stated)
MIC / µM: 111
//
compound: COc1ccc2cc3[n+](cc2c1OCC(O)CN1CCNCC1)CCc1cc2c(cc1-3)OCO2.[Br-] (configuration not stated)
MIC / µM: 118
//
compound: COc1ccc2cc3[n+](cc2c1OCC(O)Cn1c([N+](=O)[O-])cnc1C)CCc1cc2c(cc1-3)OCO2.[Br-] (configuration not stated)
MIC / µM: 55
//
compound: COc1ccc2cc3[n+](cc2c1OC)CCc1cc2c(cc1-3)OCO2 [BERBERINE]
MIC / µM: 172
//
compound: COc1ccc2cc3[n+](cc2c1OCC(O)CN1CCCC1)CCc1cc2c(cc1-3)OCO2.[Br-] (configuration not stated)
MIC / µM: 121
//
compound: COc1ccc2cc3[n+](cc2c1OCC(O)Cn1cnc2cc([N+](=O)[O-])ccc21)CCc1cc2c(cc1-3)OCO2.[Br-] (configuration not stated)
MIC / µM: 51
//
compound: COc1ccc2cc3[n+](cc2c1OCC(O)Cn1nnnc1C)CCc1cc2c(cc1-3)OCO2.[Br-] (configuration not stated)
MIC / µM: 61
//
compound: COc1ccc2cc3[n+](cc2c1OCC(O)Cn1cc(C=O)c2ccccc21)CCc1cc2c(cc1-3)OCO2.[Br-] (configuration not stated)
MIC / µM: 53
//
compound: CCn1cc(C(=O)O)c(=O)c2cc(F)c(N3CCNCC3)cc21 [NORFLOXACIN]
MIC / µM: 100
//
compound: CCN(CCO)CC(O)COc1c(OC)ccc2cc3[n+](cc12)CCc1cc2c(cc1-3)OCO2.[Br-] (configuration not stated)
MIC / µM: 234
//
compound: COc1ccc2cc3[n+](cc2c1OCC(O)Cn1nnc2ccccc21)CCc1cc2c(cc1-3)OCO2.[Br-] (configuration not stated)
MIC / µM: 55
